assay.protocol: logP determination by HPLC on reversed-phase column (EEC Directive 79/831 Annex V.A8)
Type: physicochemical
study.conditions: reversed-phase C18 HPLC column, Table 1 logP / m.p., C18, 43° C., acidic range (pH 2.3), read-out: logP
Decision: chromatographic logP >= 4 yields Condition met, all other cases yield Condition not met.

Does O=C(Nc1ccccc1-c1ccc(Br)c(F)c1)C1=C(C(F)(F)F)OCCS1 have a reported chromatographic logP of at least 4?
Condition not met

Does CC(CC1CCCC1)c1ccccc1NC(=O)C1=C(C(F)(F)F)OCCS1 (stereo not shown) have a reported chromatographic logP of at least 4?
Condition met

Is reported chromatographic logP greater than or equal to 4 here: CC(C)O/N=C/c1ccc(-c2ccccc2NC(=O)C2=C(C(F)(F)F)OCCS2)cc1
Condition met

The measurements presented in this section are drawn from patent US7847108B2.
